Documented Kd across a set of binders
ASSAYED TARGET: T1, human α-CGRP 1-37 (WT) (human, C-terminal amide; N-terminal biotin when captured on the SA chip; 125I-labelled in the radioligand assay)
T1 construct: also called α-human
T1 peptide: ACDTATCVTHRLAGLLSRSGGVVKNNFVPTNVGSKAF
METHOD NOTES: Biacore, 37°C, Fab over CGRP on SA chip

{"columns": ["BINDER", "Kd"],
 "data": [
  ["G1 variant M63 Fab (Fab, V domains shown, Fab; constant domains as m1) VH: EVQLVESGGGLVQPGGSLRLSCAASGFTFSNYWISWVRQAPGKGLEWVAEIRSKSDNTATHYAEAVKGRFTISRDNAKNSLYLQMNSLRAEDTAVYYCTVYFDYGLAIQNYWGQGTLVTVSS VL: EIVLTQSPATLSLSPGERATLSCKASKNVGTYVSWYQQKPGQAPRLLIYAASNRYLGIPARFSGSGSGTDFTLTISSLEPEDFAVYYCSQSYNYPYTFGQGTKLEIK", "9.38 nM"],
  ["G1 variant M22 Fab (Fab, V domains shown, Fab; constant domains as m1) VH: EVQLVESGGGLVQPGGSLRLSCAASGFTFSNYWISWVRQAPGKGLEWVAEIRSESDASATHYAEAVKGRFTISRDNAKNSLYLQMNSLRAEDTAVYYCTAYFDYGLAIQNYWGQGTLVTVSS VL: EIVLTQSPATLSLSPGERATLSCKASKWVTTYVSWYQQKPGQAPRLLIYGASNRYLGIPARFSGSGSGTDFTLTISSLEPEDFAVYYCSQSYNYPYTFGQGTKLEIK", "0.73 nM"]
]}
